Reference source: patent US5922871A

target-or-system: HBV polymerase reverse transcriptase (HBV-RT) (Hepatitis B virus genotype D subtype ayw, UniProt P03156)
Construct: made in house; host or cells: E. coli
Sequence (P03156 whole entry): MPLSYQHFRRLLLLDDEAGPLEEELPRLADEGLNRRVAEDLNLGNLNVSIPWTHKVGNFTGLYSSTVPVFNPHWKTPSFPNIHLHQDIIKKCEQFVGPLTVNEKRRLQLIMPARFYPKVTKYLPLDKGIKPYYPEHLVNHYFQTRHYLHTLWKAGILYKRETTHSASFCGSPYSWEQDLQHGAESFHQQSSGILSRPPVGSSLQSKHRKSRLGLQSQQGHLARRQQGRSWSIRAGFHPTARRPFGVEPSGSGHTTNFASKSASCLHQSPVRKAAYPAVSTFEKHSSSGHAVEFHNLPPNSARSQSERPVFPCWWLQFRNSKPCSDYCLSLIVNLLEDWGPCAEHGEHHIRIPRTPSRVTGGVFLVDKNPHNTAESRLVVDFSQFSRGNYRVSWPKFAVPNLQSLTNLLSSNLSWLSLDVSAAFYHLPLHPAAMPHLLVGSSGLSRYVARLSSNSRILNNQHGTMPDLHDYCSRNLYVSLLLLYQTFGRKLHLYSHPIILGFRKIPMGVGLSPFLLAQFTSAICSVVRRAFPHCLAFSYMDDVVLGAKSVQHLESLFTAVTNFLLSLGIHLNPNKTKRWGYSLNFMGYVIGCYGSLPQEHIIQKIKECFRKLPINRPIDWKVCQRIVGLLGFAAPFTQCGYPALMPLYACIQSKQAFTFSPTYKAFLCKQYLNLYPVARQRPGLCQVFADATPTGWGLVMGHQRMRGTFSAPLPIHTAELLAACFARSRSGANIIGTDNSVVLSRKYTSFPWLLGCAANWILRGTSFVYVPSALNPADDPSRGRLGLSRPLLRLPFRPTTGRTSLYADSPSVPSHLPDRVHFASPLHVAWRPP
test-method-notes: inhibitory activity against HBV polymerase in vitro (reverse transcriptase activity)
Assay type: biochemical
setup-conditions: 0.1 μg/ml; read-out: Inhibitory effect of HBV-RT

| compound | inhibition at 0.1 µg/mL |
| --- | --- |
| CC(C)Nc1cccnc1N1CCN(C(=O)c2ccc(C(=O)N3CCOCC3)cc2)CC1 [Compound No. 76] | 49% |
| CC(C)Nc1cccnc1N1CCN(C(=O)c2ccc(C(=O)NCCCN3CCOCC3)cc2)CC1 [Compound No. 80] | 40% |
| CC(C)Nc1cccnc1N1CCN(C(=O)c2ccc(C(=O)N3CCN(C)CC3)cc2)CC1 [Compound No. 20] | 43% |
| CC(O)CN(CC(C)O)C(=O)c1ccc(C(=O)N2CCN(c3ncccc3NC(C)C)CC2)cc1 (stereo not drawn) [Compound No. 16] | 45% |
| CC(C)Nc1cccnc1N1CCN(C(=O)c2ccc(C(=O)NC(C)(C)CO)cc2)CC1 [Compound No. 34] | 41% |
| CC(C)Nc1cccnc1N1CCN(C(=O)c2ccc(C(=O)N(CCO)c3ccccc3)cc2)CC1 [Compound No. 11] | 20% |
| CC(C)Nc1cccnc1N1CCN(C(=O)c2ccc(C(=O)NC(CO)CO)cc2)CC1 [Compound No. 52] | 52% |
| COCCN(CCOC)C(=O)c1ccc(C(=O)N2CCN(c3ncccc3NC(C)C)CC2)cc1 [Compound No. 62] | 53% |
| CCNc1cccnc1N1CCN(C(=O)c2ccc(C(=O)N3CCN(CCO)CC3)cc2)CC1 [Compound No. 33] | 37% |
